Reported viability, T/C values are given for each entry in this list.
System: HSSY-II tumor spheroid viability
test.description: Anticancer human tumor HSSY-II cell line growth inhibition;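 note: spheroids exposed to compounds for seven days before reading; percent of DMSO vehicle control viability so 100% = untreated level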
measurement.parameters: second compound 100 µM; first compound 3 µM; stronger effect = lower value; spheroids with HUVEC and MSC
// note: answer is a bare numeric in %

Guide cases for viability, T/C, answers given:
[[record]]
compound = "Cn1ncnc1[C@H]1c2n[nH]c(=O)c3cc(F)cc(c23)N[C@@H]1c1ccc(F)cc1 + Cn1nnc2c(C(N)=O)ncn2c1=O"
number = 5.25

[[record]]
compound = "Cc1sc2c(c1C)C(c1ccc(Cl)cc1)=NC(CC(=O)Nc1ccc(O)cc1)c1nnc(C)n1-2 (centres undefined) + Cn1nnc2c(C(N)=O)ncn2c1=O"
number = 5.25

[[record]]
compound = "CNCc1ccc(-c2cc(-c3nc(-c4ccc(S(=O)(=O)C(C)C)cc4)cnc3N)on2)cc1 + Cn1nnc2c(C(N)=O)ncn2c1=O"
number = 0.2


Consider O=C(c1cc(Cc2n[nH]c(=O)c3ccccc23)ccc1F)N1CCN(C(=O)C2CC2)CC1 + Cn1nnc2c(C(N)=O)ncn2c1=O . Its measured viability, T/C is 10.1

----------
Tested on: HSSY-II tumor spheroid viability
test.description: Anticancer human tumor HSSY-II cell line growth inhibition;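 note: spheroids exposed to compounds for seven days before reading; percent of DMSO vehicle control viability so 100% = untreated level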
measurement.parameters: second compound 0.00949 µM; first compound 0.949 µM; stronger effect = lower value; spheroids with HUVEC and MSC
measurement.kind: viability, T/C (%)
Write down the numeric answer in % and omit the unit.

Worked examples, 3 compounds total:
[[record]]
compound = "CNCc1ccc(-c2cc(-c3nc(-c4ccc(S(=O)(=O)C(C)C)cc4)cnc3N)on2)cc1 + CC[C@@]1(O)C(=O)OCc2c1cc1n(c2=O)Cc2cc3c(CN(C)C)c(O)ccc3nc2-1"
measurement_kind = "viability, T/C"
units_label = "%"
number = 2.08

[[record]]
compound = "Cn1ncnc1[C@H]1c2n[nH]c(=O)c3cc(F)cc(c23)N[C@@H]1c1ccc(F)cc1 + CC[C@@]1(O)C(=O)OCc2c1cc1n(c2=O)Cc2cc3c(CN(C)C)c(O)ccc3nc2-1"
measurement_kind = "viability, T/C"
units_label = "%"
number = 5.84

[[record]]
compound = "Cc1sc2c(c1C)C(c1ccc(Cl)cc1)=NC(CC(=O)Nc1ccc(O)cc1)c1nnc(C)n1-2 (centres undefined) + CC[C@@]1(O)C(=O)OCc2c1cc1n(c2=O)Cc2cc3c(CN(C)C)c(O)ccc3nc2-1"
measurement_kind = "viability, T/C"
units_label = "%"
number = 8.01


Per the records, this compound ( O=C(c1cc(Cc2n[nH]c(=O)c3ccccc23)ccc1F)N1CCN(C(=O)C2CC2)CC1 + CC[C@@]1(O)C(=O)OCc2c1cc1n(c2=O)Cc2cc3c(CN(C)C)c(O)ccc3nc2-1 ) has viability, T/C equal to 10.8

----------
Tested on: HSSY-II tumor spheroid viability
test.description: Anticancer human tumor HSSY-II cell line growth inhibition; active = viability on the fitted dose curve at most 10% of control; inactive = the rest;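 note: spheroids exposed to compounds for seven days before reading; percent of DMSO vehicle control viability so 100% = untreated level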
measurement.parameters: second compound 1 µM; first compound 10 µM; spheroids with HUVEC and MSC
Your answer must be one of the following: Y for active, N for inactive

[[record]]
compound = "COc1ccc([C@@H](O)c2cc(-c3ncnc4cc(N5CCOCC5)ccc34)c(F)cc2Cl)nn1 + Cn1nnc2c(C(N)=O)ncn2c1=O"
assigned_category = "N"

[[record]]
compound = "CC1COCCN1c1cc(-c2ccnn2C)c2ccnc(-c3ccn[nH]3)c2n1 (stereo unspecified) + Cn1nnc2c(C(N)=O)ncn2c1=O"
assigned_category = "Y"

[[record]]
compound = "COc1cc(C)[nH]c(=O)c1CN1CCc2c(Cl)cc(C(OC)C3COC3)c(Cl)c2C1=O (stereo unspecified) + Cn1nnc2c(C(N)=O)ncn2c1=O"
assigned_category = "N"


Please let me know the test result on file for Cc1cc(C)c(CNC(=O)c2cc(-c3ccc(CN4CCOCC4)cc3)cc3c2cnn3C2CCCC2)c(=O)[nH]1 + Cn1nnc2c(C(N)=O)ncn2c1=O .
N

Just curious, what result did [2H]c1nc(C)nc([2H])c1-c1cc(NC[C@@H](C)c2cccc3c(C(=O)NC)ccnc23)ncn1 + Cn1nnc2c(C(N)=O)ncn2c1=O get here?
N

Outcome logged for CC(C)n1c(=O)n(C)c2cnc3cc(F)c(-c4ccc(OCCCN5CCCCC5)nc4)cc3c21 + Cn1nnc2c(C(N)=O)ncn2c1=O in this assay:
N
